# System: trypsin
# ASSAY OVERVIEW: Trypsin cleavage of particles for detecting enzyme activity, fluorescence change (Example 2)
# Assay type: biochemical
# CONDITION INFO: trypsin 100 units, 1 mg particle, difference 60 minutes after adding sample solution vs before; excitation 485 nm, fluorescence 535 nm
Square brackets hold non-standard residues; d marks the D form. Ends that are not written are not given here. * marks the point of attachment. FITC = O=C1OC2(c3ccc(O)cc3Oc3cc(O)ccc32)c2ccc(NC(=S)*)cc21; Dnp = O=[N+]([O-])c1ccc(*)c([N+](=O)[O-])c1; βAla = NCCC(=O)O
Criterion: Fluorescence value (changed amount) meeting or surpassing 20. Met: 1 (yes). Not met: 0 (no).

Record excerpt, results attached:
Sample 12: PEGA resin particle bearing FITC-β-Ala-His-Glu-Lys-Lys, Dnp quencher on lysine ({FITC}-[βAla]HEKK(Dnp); also: attached to PEGA resin particle) ... 1 (yes)
Sample 11: PEGA resin particle bearing FITC-β-Ala-Pro-Arg-Gly-Lys, Dnp quencher on lysine ({FITC}-[βAla]PRGK(Dnp); also: attached to PEGA resin particle) ... 1 (yes)
Sample 17: PEGA resin particle bearing FITC-β-Ala-Pro-Arg-Leu-Lys, Dnp quencher on lysine ({FITC}-[βAla]PRLK(Dnp); also: attached to PEGA resin particle) ... 0 (no)

Task: Please check the record Sample 10: PEGA resin particle bearing FITC-β-Ala-Asp-Gly-Arg-Lys, Dnp quencher on lysine ({FITC}-[βAla]DGRK(Dnp); also: attached to PEGA resin particle) and state if its Fluorescence value (changed amount) is at or above 20.
Result: 1 (yes)

Task: Assess whether reported Fluorescence value (changed amount) for Sample 14: PEGA resin particle bearing FITC-β-Ala-Asn-Pro-Arg-Lys, Dnp quencher on lysine ({FITC}-[βAla]NPRK(Dnp); also: attached to PEGA resin particle) sits at 20 or higher.
Result: 0 (no)

* * *

# Test system: elastase
# ASSAY OVERVIEW: Elastase cleavage of particles, fluorescence change (Example 3)
# Format: biochemical
# CONDITION INFO: elastase 10 units, 1 mg particle, difference 60 minutes after adding sample solution vs before; excitation 485 nm, fluorescence 535 nm
# Method: To each 1 mg of the particle for detecting the enzyme activity of the samples 22 to 25, 190 μL of 20 mM Tris-HCl buffer (pH 8.0, 100 mM NaCl, 50 mM CaCl2) containing 0.01% Tween 20 was added, to which 10 μL of elastase aqueous solution (10 units), 10 μL of trypsin aqueous solution (10 units) and 10 μL of subtilisin aqueous solution (10 units) as the sample solution was added. […]
Square brackets hold non-standard residues; d marks the D form. Ends that are not written are not given here. * marks the point of attachment. FITC = O=C1OC2(c3ccc(O)cc3Oc3cc(O)ccc32)c2ccc(NC(=S)*)cc21; Dnp = O=[N+]([O-])c1ccc(*)c([N+](=O)[O-])c1; βAla = NCCC(=O)O
Quick reference for Fluorescence value Elastase (changed amount) among some substances
Enter a number only.

Solved entries (count: 3):
Sample 23: PEGA resin particle bearing FITC-β-Ala-Ala-Pro-Ala-Lys, Dnp quencher on lysine ({FITC}-[βAla]APAK(Dnp); also: attached to PEGA resin particle) ... 582
Sample 25: PEGA resin particle bearing FITC-β-Ala-Ala-Pro-Leu-Lys, Dnp quencher on lysine ({FITC}-[βAla]APLK(Dnp); also: attached to PEGA resin particle) ... 134
Sample 24: PEGA resin particle bearing FITC-β-Ala-Asn-Leu-Asp-Lys, Dnp quencher on lysine ({FITC}-[βAla]NLDK(Dnp); also: attached to PEGA resin particle) ... 23

Moving on to the next substance.
Observed Fluorescence value Elastase (changed amount), elastase, Sample 22: PEGA resin particle bearing FITC-β-Ala-Leu-Leu-Glu-Lys, Dnp quencher on lysine ({FITC}-[βAla]LLEK(Dnp); also: attached to PEGA resin particle) : 38

* * *

# Test system: trypsin
# ASSAY OVERVIEW: Trypsin cleavage of particles for detecting enzyme activity, fluorescence change (Example 2)
# Type: biochemical
# CONDITION INFO: trypsin 100 units, 1 mg particle, difference 60 minutes after adding sample solution vs before; excitation 485 nm, fluorescence 535 nm
Square brackets hold non-standard residues; d marks the D form. Ends that are not written are not given here. * marks the point of attachment. FITC = O=C1OC2(c3ccc(O)cc3Oc3cc(O)ccc32)c2ccc(NC(=S)*)cc21; Dnp = O=[N+]([O-])c1ccc(*)c([N+](=O)[O-])c1; βAla = NCCC(=O)O
Quick reference: Fluorescence value (changed amount) of the listed items.
Enter the number alone.

Sample 19: PEGA resin particle bearing FITC-β-Ala-Phe-Phe-Arg-Lys, Dnp quencher on lysine ({FITC}-[βAla]FFRK(Dnp); also: attached to PEGA resin particle) ... 8
Sample 20: PEGA resin particle bearing FITC-β-Ala-His-Leu-Lys-Lys, Dnp quencher on lysine ({FITC}-[βAla]HLKK(Dnp); also: attached to PEGA resin particle) ... 7
Sample 21: PEGA resin particle bearing FITC-β-Ala-Pro-Phe-Arg-Lys, Dnp quencher on lysine ({FITC}-[βAla]PFRK(Dnp); also: attached to PEGA resin particle) ... 3

# next substance below
Measured Fluorescence value (changed amount) of Sample 15: PEGA resin particle bearing FITC-β-Ala-Gly-Lys-Arg-Lys, Dnp quencher on lysine ({FITC}-[βAla]GKRK(Dnp); also: attached to PEGA resin particle) : 18

* * *

Quick list: Fluorescence value (changed amount) per entry.
# Tested on: trypsin
# ASSAY OVERVIEW: Trypsin cleavage of particles for detecting enzyme activity, fluorescence change (Example 2)
# Format: biochemical
# CONDITION INFO: trypsin 100 units, 1 mg particle, difference 60 minutes after adding sample solution vs before; excitation 485 nm, fluorescence 535 nm
Square brackets hold non-standard residues; d marks the D form. Ends that are not written are not given here. * marks the point of attachment. FITC = O=C1OC2(c3ccc(O)cc3Oc3cc(O)ccc32)c2ccc(NC(=S)*)cc21; Dnp = O=[N+]([O-])c1ccc(*)c([N+](=O)[O-])c1; βAla = NCCC(=O)O
API doc: respond with a numeric literal and nothing else, no unit.

Field: example entries. Status: answers known.
Sample 13: PEGA resin particle bearing FITC-β-Ala-Ser-Ala-Arg-Lys, Dnp quencher on lysine ({FITC}-[βAla]SARK(Dnp); also: attached to PEGA resin particle) ... 24
Sample 16: PEGA resin particle bearing FITC-β-Ala-Gly-Arg-Arg-Lys, Dnp quencher on lysine ({FITC}-[βAla]GRRK(Dnp); also: attached to PEGA resin particle) ... 14

As a next step, examine the substance that follows.
Memo: Sample 18: PEGA resin particle bearing FITC-β-Ala-Thr-Arg-Val-Lys, Dnp quencher on lysine ({FITC}-[βAla]TRVK(Dnp); also: attached to PEGA resin particle) , reported Fluorescence value (changed amount): 9
